Procedure text: Cytotoxicity against African green monkey Vero cells assessed as reduction in cell viability after 6 days by trypan blue exclusion assay
Type: cell-based
Test parameters: chlorocebus sabaeus, Vero cells
Measured property: CC50 at 144 h

Request: Query (compound): "CC(C)OC(=O)[C@H](C)N[P@](=O)(OC[C@H]1O[C@@H](n2ccc(=O)[nH]c2=O)[C@](C)(F)[C@@H]1O)Oc1ccccc1" ; field requested: CC50 at 144 h
Result: > 100 µM

* * *

System: Huh-7
Procedure text: Cytotoxicity against human HuH7 cells assessed as reduction in cell viability by MTT assay
Type: cell-based
Readings of CC50 for the listed molecules

Study these solved cases before continuing.
{"Molecule": "CC(C)OC(=O)[C@H](C)N[P@](=O)(OC[C@H]1O[C@@H](n2cnc3c(N)ncnc32)C(Br)(Br)[C@@H]1O)Oc1ccccc1", "Measured": "> 10 µM"}
{"Molecule": "O=c1ccn([C@@H]2O[C@H](CO)C(O)C2(Br)Br)c(=O)[nH]1 (single isomer, unassigned)", "Measured": "> 33 µM"}
{"Molecule": "Nc1nc2c(ncn2[C@@H]2O[C@H](CO)C(O)C2(Br)Br)c(=O)[nH]1 (single isomer, unassigned)", "Measured": "> 10 µM"}

Request: Any idea what its CC50 is? The molecule is "CC(C)OC(=O)[C@H](C)N[P@](=O)(OC[C@H]1O[C@@H](n2cnc3c(=O)[nH]c(N)nc32)C(Br)(Br)[C@@H]1O)Oc1ccccc1"
Result: > 10 µM

Request: What do we get for "CC(C)OC(=O)[C@H](C)N[P@](=O)(OC[C@H]1O[C@@H](n2ccc(=O)[nH]c2=O)[C@](C)(F)[C@@H]1O)Oc1ccccc1" ?
Result: > 10 µM

Request: Same question, Nc1ccn([C@@H]2O[C@H](CO)C(O)C2(Br)Br)c(=O)n1 (single isomer, unassigned) this time
Result: > 10 µM

Request: Would you mind doing "CC(C)OC(=O)[C@H](C)N[P@](=O)(OC[C@H]1O[C@@H](n2ccc(=O)[nH]c2=O)C(Br)(Br)[C@@H]1O)Oc1ccccc1" as well?
Result: > 10 µM

Request: # iterate: "CC(C)OC(=O)[C@H](C)N[P@](=O)(OC[C@H]1O[C@@H](n2ccc(N)nc2=O)C(Br)(Br)[C@@H]1O)Oc1ccccc1"
Result: > 10 µM

Request: Now the molecule Nc1ncnc2c1ncn2[C@@H]1O[C@H](CO)C(O)C1(Br)Br (single isomer, unassigned)
Result: > 10 µM

* * *

Tested on: CCRF-CEM
Procedure text: Cytotoxicity against human CEM cells assessed as reduction in cell viability after 6 days by trypan blue exclusion assay
Assay type: cell-based
Test parameters: ccrf-cem, 144 h
Measured property: CC50 (µM)
Respond with the bare value in µM.

{"Input smiles": "CC(C)OC(=O)[C@H](C)N[P@](=O)(OC[C@H]1O[C@@H](n2cnc3c(N)ncnc32)C(Br)(Br)[C@@H]1O)Oc1ccccc1", "CC50, µM": 33}

Now consider the entry below.
Request: I'm curious: which CC50 was measured for "CC(C)OC(=O)[C@H](C)N[P@](=O)(OC[C@H]1O[C@@H](n2ccc(N)nc2=O)C(Br)(Br)[C@@H]1O)Oc1ccccc1" tested on CCRF-CEM?
Result: 73

* * *

Tested on: Hepatitis C virus
Procedure text: Antiviral activity against HCV genotype 1b infected in human HuH7 cells assessed as inhibition of viral RNA replication after 5 days by RT-PCR method
Assay type: functional, organism-based, Hepacivirus hominis
Test parameters: Huh-7, 120 h
# EC90 listing for each entry below

Illustrative cases are given below, each with its answer.
{"Compound": "CC(C)OC(=O)[C@H](C)N[P@](=O)(OC[C@H]1O[C@@H](n2ccc(N)nc2=O)C(Br)(Br)[C@@H]1O)Oc1ccccc1", "EC90": "> 10 µM"}
{"Compound": "O=c1ccn([C@@H]2O[C@H](CO)C(O)C2(Br)Br)c(=O)[nH]1 (single isomer, unassigned)", "EC90": "> 33 µM"}
{"Compound": "CC(C)OC(=O)[C@H](C)N[P@](=O)(OC[C@H]1O[C@@H](n2ccc(=O)[nH]c2=O)C(Br)(Br)[C@@H]1O)Oc1ccccc1", "EC90": "2.7 µM"}
{"Compound": "CC(C)OC(=O)[C@H](C)N[P@](=O)(OC[C@H]1O[C@@H](n2ccc(=O)[nH]c2=O)[C@](C)(F)[C@@H]1O)Oc1ccccc1", "EC90": "0.5 µM"}
{"Compound": "Nc1ncnc2c1ncn2[C@@H]1O[C@H](CO)C(O)C1(Br)Br (single isomer, unassigned)", "EC90": "> 10 µM"}

Request: Reported EC90 for Hepatitis C virus, given Nc1nc2c(ncn2[C@@H]2O[C@H](CO)C(O)C2(Br)Br)c(=O)[nH]1 (single isomer, unassigned) ?
Result: > 10 µM
